Measured τdes Hill coefficient of IGly, listed per entry for reference.
System: glycine receptor (GlyR)
test_details: Glycine-induced chloride current (IGly), whole-cell patch-clamp in isolated pyramidal neurons of the rat hippocampus
Assay type: cell-based
assay_conditions: time constant of desensitization; 100 μM glycine
value_kind: τdes Hill coefficient of IGly

• C[C@]12CC[C@H]3[C@@H](CCC4=CC(=O)CC[C@@]43C)[C@@H]1CC[C@@H]2O [Compound 1, 17β-Hydroxyandrost-4-en-3-one] = 0.58
• C[C@]12CCC(=O)C=C1CC[C@@H]1[C@@H]2CC[C@]2(C)C(=O)CC[C@@H]12 = 0.60
• C[C@]12CCC(=O)C[C@@H]1CC[C@@H]1[C@@H]2CC[C@]2(C)C(=O)CC[C@@H]12 = 0.48
